Hello, the source for this data is the supplement of paper PMC10567573, in case you need it.

B1: ANKRD44 (parent)
chain: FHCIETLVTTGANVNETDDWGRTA

Variants of: B1
Assay: protein stability index of a GFP-peptide fusion (GPS, HEK-293T) (PSI 1-6); higher = more stable;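 note: lentivirally expressed fusions sorted by FACS into six bins by GFP to DsRed ratio, PSI derived from sequencing read proportions per bin multiplied by bin number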
Conditions: c terminus: a fixed tail appended
Please enter class 1 where protein stability index is greater than or equal to 2, and class 0 where it is lower.

Recorded results for 3 variants are shown here.
mutant_designation=A12E class="class 1"
mutant_designation=T6K class="class 0"
mutant_designation=G11D class="class 1"

Given the entry "T9H" , answer whether its protein stability index meets or surpasses 2.
class 1

Record "N13T" ; criterion: protein stability index no lower than 2. Met?
class 1

Kindly determine if protein stability index recorded for "V14F" is above or exactly 2.
class 1

Check this variant for protein stability index at or above 2: "T9L"
class 0
